All values here come from PubChem BioAssay AID1611.

Listing of recorded fold change by entry.
# assay_method_text: HSE-luciferase reporter activators – cell-based (AID 1611)
# experimental_setup: human cells, HSE-luciferase heat shock reporter; stronger effect = higher value
reported_endpoint: fold change

1) Cc1ncc([N+](=O)[O-])n1CCO
1.2
2) Cc1cc(C(C)(C)C)cc(C)c1CC1=NCCN1
1.28
3) Oc1c(I)cc(I)c2cccnc12
1.19
4) CCN(CC)CCOc1ccc2c(c1)C(=O)c1cc(OCCN(CC)CC)ccc1-2
0.93
5) Cc1ccccc1OCC(O)CO (configuration not stated)
0.73
6) CC1(C)S[C@@H]2C(N3C(=O)[C@@H](c4ccccc4)NC3(C)C)C(=O)N2[C@H]1C(=O)O (some centres not stated)
1.12
7) CC(=O)NS(=O)(=O)c1ccc(N)cc1
0.98
8) CC(Cc1cccc(C(F)(F)F)c1)NCCOC(=O)c1ccccc1 (configuration not stated)
1.03
9) CCn1cc(C(=O)O)c(=O)c2ccc(C)nc21
0.98
10) Cc1nnc(SCC2=C(C(=O)O)N3C(=O)[C@@H](NC(=O)Cn4cnnn4)[C@H]3SC2)s1
0.8
11) O=C1c2cccc(O)c2C(=O)c2c(O)cccc21
0.86
12) COc1ccc(C[C@H](N)C(=O)N[C@@H]2[C@@H](CO)OC(n3cnc4c(N(C)C)ncnc43)[C@@H]2O)cc1 (some centres not stated)
1.26

###

# assay_method_text: HSE-luciferase reporter activators – cell-based (AID 1611)
# experimental_setup: human cells, HSE-luciferase heat shock reporter; stronger effect = higher value
Cut-off 1 on fold change, inclusive. At or above means true (1); below means false (0).

1. Cc1ccc(C)c(OCCCC(C)(C)C(=O)O)c1
false (0)
2. C=CCc1ccccc1OCC(O)CNC(C)C (stereo not drawn)
true (1)
3. CN(C)C(=O)Oc1ccc[n+](C)c1
true (1)
4. C[n+]1c2cc(N)ccc2cc2ccc(N)cc21
true (1)
5. COc1ccc(NS(=O)(=O)c2ccc(N)cc2)nn1
true (1)
6. CCCCCC(=O)O[C@]1(C(C)=O)CCC2C3CCC4=CC(=O)CC[C@]4(C)C3CC[C@@]21C (stereo partly drawn)
true (1)
7. CC(=O)Nc1ccccc1
false (0)
8. Fc1ccc(C(c2ccc(F)cc2)N2CCN(C/C=C/c3ccccc3)CC2)cc1
true (1)
9. Nc1nccs1
true (1)
10. O=C(O)c1cn(C2CC2)c2cc(N3CCNCC3)c(F)cc2c1=O
true (1)
11. CC(=O)[C@@]1(O)CCC2C3C[C@H](C)C4=CC(=O)C=CC4(C)[C@@]3(F)[C@@H](O)C[C@@]21C (stereo partly drawn)
true (1)
12. CCN(CC)CCOC(=O)C(c1ccccc1)C1CCCCC1 (stereo not drawn)
true (1)
13. COc1ccc(C(=O)c2ccccc2)c(O)c1
false (0)
14. O=C(O)c1cc(=O)c2ccccc2[nH]1
true (1)
15. CCN1CCN(C(=O)NC(C(=O)NC2C(=O)N3C(C(=O)O)=C(CSc4nnnn4C)CSC23)c2ccc(O)cc2)C(=O)C1=O (stereo not drawn)
false (0)
16. Cc1ccc(S(=O)(=O)NC(=O)NN2CCCCCC2)cc1
false (0)
17. CC(=O)OCC1=C(C(=O)O)N2C(=O)[C@@H](NC(=O)CSc3ccncc3)[C@H]2SC1
false (0)
18. Nc1ncn([C@@H]2O[C@H](CO)[C@@H](O)[C@H]2O)c(=O)n1
true (1)
19. CC1CCC(NC(=O)N(CCCl)N=O)CC1 (stereo not drawn)
false (0)
20. CC1(C)O[C@@H]2CC3C4C[C@H](F)C5=CC(=O)C=CC5(C)C4C(O)CC3(C)[C@]2(C(=O)CO)O1 (stereo partly drawn)
true (1)
21. CN(C)c1ccc(C(=C2C=CC(=[N+](C)C)C=C2)c2ccc(N(C)C)cc2)cc1
true (1)
22. O=C(OCC(O)CO)c1ccccc1Nc1ccnc2cc(Cl)ccc12 (stereo not drawn)
false (0)
23. CC(CN1c2ccccc2Sc2ccccc21)N(C)C (stereo not drawn)
false (0)
